The entries below are paired with their reported GI50.
# Test system: HT-29
# ASSAY EXPLANATION: Antiproliferative activity against human HT-29 cells assessed as inhibition of cell proliferation incubated for 72 hrs by MTT assay
# Type: functional

q: Name the reported GI50 value associated with the compound `Clc1ccc2c(N3CCCC3)cc[n+](Cc3ccccc3)c2c1`
a: 4.1 µM

Further cases:
q: What measured GI50 goes with `CN(C)c1cc[n+](Cc2ccccc2)cc1` ?
a: > 100 µM

q: Param item = `CN(c1ccc(Cl)cc1)c1cc[n+](Cc2ccc(-c3ccccc3)cc2)cc1` ; retrieve measured GI50.
a: 0.23 µM

q: What does the record list as GI50 for `c1ccc(-c2ccc(C[N+]34CCC(CC3)CC4)cc2)cc1` ?
a: 24.7 µM

// data source = ChEMBL document CHEMBL4706596
